# assay method text: Cell viability assay (EZ-Cytox) in HepAD38 cells
# Assay type: cell-based
# condition set: human, @100 μM, 65 hours of treatment, read-out: Cytotoxicity % Livability (@100 μM)
measure: viability at 65 h, 100 µM
The answer should read as a number with its unit following.

- molecule: "O=C(Nc1ccc(F)c(Cl)c1)N(Cc1nnc2n1CCOCC2)c1ccc2c(c1)OCO2 [Example 7]"
  reported value: "96.4%"
- molecule: "COc1ccc(N(Cc2nnc(C(F)(F)F)n2C)C(=O)Nc2ccc(F)c(Cl)c2)cn1 [Example 49]"
  reported value: "55.9%"
- molecule: "COc1ccc(N(Cc2nnc(C(F)F)n2CCO)C(=O)Nc2ccc(F)c(Cl)c2)cn1 [Example 53]"
  reported value: "99.1%"
- molecule: "O=C(Nc1ccc(F)c(Cl)c1)N(Cc1nnc2n1CCCCC2)c1ccc(C(F)(F)F)cc1 [Example 13]"
  reported value: "106%"
- molecule: "O=C(Nc1ccc(F)c(Cl)c1)N(Cc1nnc2n1CCCCC2)c1ccc2ncsc2c1 [Example 16]"
  reported value: "93.9%"
- molecule: "COc1ccc(N(Cc2nnc(C(F)(F)F)n2CCO)C(=O)Nc2ccc(F)c(Cl)c2)cn1 [Example 50]"
  reported value: "101%"

Quickly give me recorded viability at 65 h, 100 µM for COc1ccc(N(Cc2nnc3n2CCCC3)C(=O)Nc2ccc(F)c(Cl)c2)cc1 [Example 43]
103%

Data origin, for the record: patent US20250235462A1
